// reported binding signal per item
- target desc: MAX:MAX (p21) (human, UniProt P61244-2 1-151)
- Sequence (P61244 other isoform, or with tags, fused parts or gaps): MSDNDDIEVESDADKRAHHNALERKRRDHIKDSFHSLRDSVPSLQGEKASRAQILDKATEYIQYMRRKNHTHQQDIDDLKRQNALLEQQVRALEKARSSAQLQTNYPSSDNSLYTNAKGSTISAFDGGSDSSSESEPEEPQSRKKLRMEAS
- protocol: protein-binding microarray (anti-MAX antibody); PBM: 15 mM Tris-HCl pH 7.5, 100 mM KCl, 0.075% NP40, 7.5 mM beta-mercaptoethanol, 375 ng/ul BSA, 8 ng/ul poly(dA-dT):(dA-dT), 550 ng complex, 60 min, room tempe; high values mean tight binding
- conditions: protein: recombinant; tags: 6xHis; chain copies: 2; label: 3' end of printed strand (linker) attached to glass slide; dsDNA, one strand shown
Whole data set: some 4,500 sequences, median “log2 normalized fluorescence” near -0.34, cut for the highest 2% near 3.3. The entries come from a sample that favours the highest values as a whole.
quantity: binding signal

[[record]]
residue_sequence = "CCGGCTGACACGTGGTCTTAATAGCTAAGATTACTATATCGACG"
target_desc = "MAX:MAX (p21) (human, UniProt P61244-2 1-151)"
endpoint_result = "3.21 log2 normalized fluorescence"

[[record]]
residue_sequence = "CCGGCTGACATAGCGTATTAATAGCTAAGATTACTATATCGACG"
target_desc = "MAX:MAX (p21) (human, UniProt P61244-2 1-151)"
endpoint_result = "-0.366 log2 normalized fluorescence"

[[record]]
residue_sequence = "CCGGCTTACACGTGGTCTTAATAGCTAAGATTACTATATCGACG"
target_desc = "MAX:MAX (p21) (human, UniProt P61244-2 1-151)"
endpoint_result = "3.19 log2 normalized fluorescence"

[[record]]
residue_sequence = "CCGGCGTACACGTGGTATTAATAGCTAAGATTACTATATCGACG"
target_desc = "MAX:MAX (p21) (human, UniProt P61244-2 1-151)"
endpoint_result = "3.3 log2 normalized fluorescence"

[[record]]
residue_sequence = "CCGGCTGAGGAACCGTATTAATAGCTAAGATTACTATATCGACG"
target_desc = "MAX:MAX (p21) (human, UniProt P61244-2 1-151)"
endpoint_result = "-0.709 log2 normalized fluorescence"

[[record]]
residue_sequence = "CCGGCTGACATGAGGTATTAATAGCTAAGATTACTATATCGACG"
target_desc = "MAX:MAX (p21) (human, UniProt P61244-2 1-151)"
endpoint_result = "2.52 log2 normalized fluorescence"

[[record]]
residue_sequence = "CCGGCTGAGGAGAGGTATTAATAGCTAAGATTACTATATCGACG"
target_desc = "MAX:MAX (p21) (human, UniProt P61244-2 1-151)"
endpoint_result = "-0.732 log2 normalized fluorescence"

[[record]]
residue_sequence = "CCGGCTGAGACACTGTATTAATAGCTAAGATTACTATATCGACG"
target_desc = "MAX:MAX (p21) (human, UniProt P61244-2 1-151)"
endpoint_result = "-0.484 log2 normalized fluorescence"

[[record]]
residue_sequence = "CCGGCATACACGTGGTATTAATAGCTAAGATTACTATATCGACG"
target_desc = "MAX:MAX (p21) (human, UniProt P61244-2 1-151)"
endpoint_result = "3.25 log2 normalized fluorescence"

[[record]]
residue_sequence = "CCGGCGTATACGTGGTATTAATAGCTAAGATTACTATATCGACG"
target_desc = "MAX:MAX (p21) (human, UniProt P61244-2 1-151)"
endpoint_result = "1.62 log2 normalized fluorescence"

[[record]]
residue_sequence = "CCGGCTGAAAAACCGTATTAATAGCTAAGATTACTATATCGACG"
target_desc = "MAX:MAX (p21) (human, UniProt P61244-2 1-151)"
endpoint_result = "-0.672 log2 normalized fluorescence"

